In this section we review reported pKd values for a set of binders.
System tested: T1, recombinant human IL-23R/Fc chimera (R&D Systems) (human, UniProt Q5VWK5 24-355)
T1 construct: Bought; also called rhIL23RFc
T1 sequence (looked up): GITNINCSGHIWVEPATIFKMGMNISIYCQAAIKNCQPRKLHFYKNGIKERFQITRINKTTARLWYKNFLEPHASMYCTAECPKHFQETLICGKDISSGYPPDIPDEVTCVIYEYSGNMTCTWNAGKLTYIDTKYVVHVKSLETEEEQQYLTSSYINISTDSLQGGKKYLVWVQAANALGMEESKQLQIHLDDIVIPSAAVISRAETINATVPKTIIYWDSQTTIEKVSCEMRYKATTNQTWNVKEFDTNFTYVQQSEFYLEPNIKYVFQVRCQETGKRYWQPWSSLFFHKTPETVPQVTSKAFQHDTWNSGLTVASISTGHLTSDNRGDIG
Procedure details: SPR
Formally, pKd is defined as -log10 of the concentration c, with c in mol/L.

Some binders with known pKd results, for comparison:
001-87.A4A ATRIMER complex (designed binder, not shown: C-terminal tag: His/Myc (pANA4) or HA-StrepII (pANA10)) EPPTQKPKKIVNAKKDVVNTKMFEELKSRLDTLAQEVALLKEQQALQTVCLKGTKVHMKCFLAFTQTKTFHEASEDCISRGGTLSTPQTGSENDALYEYLRQSVGNEAEIWLGLNWTLAKNLWVDMTGARIAYKNWETEITAQPDGGLFGRGENCAVLSGAANGKWFDKRCRDQLPYICQFGIV	8.09
056-41.B9B ATRIMER complex (designed binder, not shown: C-terminal tag: His/Myc (pANA4) or HA-StrepII (pANA10)) EPPTQKPKKIVNAKKDVVNTKMFEELKSRLDTLAQEVALLKEQQALQTVCLKGTKVHMKCFLAFTQTKTFHEASEDCISRGGTLSTPQTGSENDALYEYLRQSVGNEAEIWLGLNAPPDLGLWVDMTGARIAYKNWETEITAQPDGGWGVWGENCAVLSGAANGKWFDKRCRDQLPYICQFGIV	8.29
101-51-1A8 ATRIMER complex (designed binder, Forms a homotrimer through the tetranectin coiled coil; one protomer is given., not shown: C-terminal tag: His/Myc (pANA4) or HA-StrepII (pANA10)) EPPTQKPKKIVNAKKDVVNTKMFEELKSRLDTLAQEVALLKEQQALQTVCLKGTKVHMKCFLAFTQTKTFHEASEDCISRGGTLSTPQTGSENDALYEYLRQSVGNEAEIWLGLNGSALTNTWVDMTGARIAYKNWERTPPWQPEGGFGYFGENCAVLSGAANGKWFDKRCRDQLPYICQFGIV	8.82

Endpoint output: pKd of 101-113-6C102 ATRIMER complex (designed binder, not shown: C-terminal tag) EPPTQKPKKIVNAKKDVVNTKMFEELKSRLDTLAQEVALLKEQQALQTVCLKGTKVHMKCFLAFTQTKTFHEASEDCISRGGTLSTPQTGSENDALYEYLRQSVGNEAEIWLGLNGSNVTQTWVDMTGARIAYKNWEPPPPHHPQGGFGVFGENCAVLSGAANGKWFDKRCRDQLPYICQFGIV . Value?
8.98

Endpoint output: pKd of 001-89.C3C ATRIMER complex (designed binder, not shown: C-terminal tag: His/Myc (pANA4) or HA-StrepII (pANA10)) EPPTQKPKKIVNAKKDVVNTKMFEELKSRLDTLAQEVALLKEQQALQTVCLKGTKVHMKCFLAFTQTKTFHEASEDCISRGGTLSTPQTGSENDALYEYLRQSVGNEAEIWLGLNANRRRTMWVDMTGARIAYKNWETEITAQPDGGMGVWGENCAVLSGAANGKWFDKRCRDQLPYICQFGIV . Value?
8.08

Endpoint output: pKd of 105-20-2G12 ATRIMER complex (designed binder) EPPTQKPKKIVNAKKDVVNTKMFEELKSRLDTLAQEVALLKEQQALQTVCLKGTKVHMKCFLAFTQTKTFHEASEDCISRGGTLSTPQTGSENDALYEYLRQSVGNEAEIWLGLNGSPRTNTWVDMTGARIAYKNWETEITAQPDGGFGYFGENCAVLSGAANGKWFDKRCRDQLPYICQFGIV . Value?
9.18

Endpoint output: pKd of 101-51-1A6 ATRIMER complex (designed binder, Forms a homotrimer through the tetranectin coiled coil; one protomer is given., not shown: C-terminal tag: His/Myc (pANA4) or HA-StrepII (pANA10)) EPPTQKPKKIVNAKKDVVNTKMFEELKSRLDTLAQEVALLKEQQALQTVCLKGTKVHMKCFLAFTQTKTFHEASEDCISRGGTLSTPQTGSENDALYEYLRQSVGNEAEIWLGLNGSALTNTWVDMTGARIAYKNWENNLSAQPRGGFGYFGENCAVLSGAANGKWFDKRCRDQLPYICQFGIV . Value?
9.13
